Sourced from patent US20110144156A1

# assayed-target: human A3ARs (Homo sapiens, UniProt P0DMS8)
# Construct: expressed in transfected cells; host or cells: CHO (Chinese hamster ovary) cells; membrane preparation
# Sequence (P0DMS8 1-318): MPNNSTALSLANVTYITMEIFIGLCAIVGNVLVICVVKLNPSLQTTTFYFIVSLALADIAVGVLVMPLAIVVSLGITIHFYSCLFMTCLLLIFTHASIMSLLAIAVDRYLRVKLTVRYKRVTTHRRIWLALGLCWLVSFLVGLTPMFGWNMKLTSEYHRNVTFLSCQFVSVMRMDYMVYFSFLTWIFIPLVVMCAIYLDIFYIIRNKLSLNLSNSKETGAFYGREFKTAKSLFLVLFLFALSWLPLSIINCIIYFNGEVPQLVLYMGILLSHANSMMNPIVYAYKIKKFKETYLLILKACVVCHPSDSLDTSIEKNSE
# test-protocol: Competitive binding assay to the human A3 AR with [125I]I-AB-MECA
# assay-context: 1 h, 10 μM test compound; [125I]I-AB-MECA radioligand; CHO cell membranes expressing human A3AR; brackets = individual assays; read-out: % displacement at 10 μM (hA3AR)
Label true when inhibition at 10 µM is at or above 60%; anything below gets false.

{"columns": ["molecule", "answer-label"],
 "data": [
  ["O=C(Nc1cc(Nc2ccc3c(c2)CCC3)nc2ccccc12)C1CCCCC1 [Compound 28]", "false"],
  ["O=C(Nc1cc(Nc2ccccc2)nc2ccccc12)C1CCC1 [Compound 33]", "true"],
  ["Cc1ccc(Nc2cc(NC(=O)C3CCCC3)c3ccccc3n2)cc1 [Compound 19]", "true"],
  ["O=C(Nc1cc(Nc2ccc(Cl)c(Cl)c2)nc2ccccc12)C1CCCC1 [Compound 17]", "false"],
  ["O=C(Nc1cc(Nc2ccc(Cl)c(Cl)c2)nc2ccccc12)c1ccccc1 [Compound 30]", "false"],
  ["O=C(Nc1cc(Nc2ccc3c(c2)CCC3)nc2ccccc12)C1CCCC1 [Compound 20]", "true"]
]}
